# tested_target: p75NTR receptor (Homo sapiens, UniProt P08138)
# Sequence (P08138 29-427): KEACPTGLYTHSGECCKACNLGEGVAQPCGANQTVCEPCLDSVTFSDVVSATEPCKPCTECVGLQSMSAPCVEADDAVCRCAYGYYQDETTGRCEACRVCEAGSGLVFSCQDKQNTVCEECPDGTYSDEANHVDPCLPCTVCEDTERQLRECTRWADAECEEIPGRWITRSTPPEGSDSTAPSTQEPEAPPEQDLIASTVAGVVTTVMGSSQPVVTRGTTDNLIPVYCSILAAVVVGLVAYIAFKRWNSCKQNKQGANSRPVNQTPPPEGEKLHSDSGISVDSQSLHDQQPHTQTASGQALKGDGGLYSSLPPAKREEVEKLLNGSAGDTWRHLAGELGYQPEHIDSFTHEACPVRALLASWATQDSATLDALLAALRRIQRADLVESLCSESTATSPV
# assay_comment: Binding of 125I NGF to the p75NTR receptor (competition, SK-N-BE Bep 75 cell suspension)
# Set-up: the Bep 75 clone, stably expressing the whole form of the human p75^NTRreceptor; expressed in transfected cells; host or cells: SK-N-BE Bep 75 (human neuroblastoma clone, hygromycin selection)
# measurement_context: SK-N-BE Bep 75 cells; 125I NGF 0.3 nM
readout: IC50 (nM)

I: O=C(CN1CCN(c2ccc(C(F)(F)F)cn2)C(=O)C1)N1CC=C(c2ccc(Cl)c(C(F)(F)F)c2)CC1
II: O=C(CN1CCN(c2ccc(C(F)(F)F)cn2)C(=O)C1)N1CC=C(c2ccc(Cl)cc2)CC1
Inquiry: Field: lower recorded IC50 (choose I or II ) Respond using the label that marks the chosen record.
Reply text: II

###

Reported melting point by item:
Where a name gives a salt, the structure may show the parent alone.

Examples with their reported melting point follow.
O=C(CN1CCN(c2ccc(C(F)(F)F)cn2)C(=O)C1)N1CC=C(c2ccc(Cl)cc2)CC1 [Compound 3]: 141 to 143 °C
O=C(CN1CCN(c2ccc(C(F)(F)F)cn2)C(=O)C1)N1CC=C(c2ccc(Cl)c(C(F)(F)F)c2)CC1 (as salt: HCl) [Compound 1]: 210 to 211 °C
Cc1ccc(N2CCN(CC(=O)N3CC=C(c4ccc(Cl)c(C(F)(F)F)c4)CC3)CC2=O)nc1 (as salt: HCl) [Compound 2]: 236 to 239 °C

// below: melting point requested for another molecule
melting point reading for O=C(CN1CCN(c2ccccn2)C(=O)C1)N1CC=C(c2ccc(Cl)c(C(F)(F)F)c2)CC1 (as salt: HCl) [Compound 5] : 160 to 163 °C

###

# tested_target: p75NTR receptor (Homo sapiens, UniProt P08138)
# assay_comment: Dimerization of the p75NTR receptor independently of its ligand (soluble p75NTR-alkaline phosphatase binding to SK-N-BE Bep 75 cells)
# Parameters: the Bep 75 clone, stably expressing the whole form of the human p75^NTRreceptor; a soluble form of the p75^NTRreceptor (extracellular part of the receptor); expressed in transfected cells; host or cells: SK-N-BE Bep 75 cells (membrane receptor); transiently transfected HEK293 cells (secreted soluble p75NTR-alkaline phosphatase, used as culture supernatant)
# measurement_context: soluble p75NTR-alkaline phosphatase 10 nM, 1 h preincubation at 37° C.
pIC50: −log10 of the molar value.
readout: pIC50

I: O=C(CN1CCN(c2ccc(C(F)(F)F)cn2)C(=O)C1)N1CC=C(c2ccc(Cl)cc2)CC1 [Compound 3]
II: Cc1ccc(N2CCN(CC(=O)N3CC=C(c4ccc(Cl)c(C(F)(F)F)c4)CC3)CC2=O)nc1 [Compound 2]
III: O=C(CN1CCN(c2ccc(C(F)(F)F)cn2)C(=O)C1)N1CC=C(c2ccc(Cl)c(C(F)(F)F)c2)CC1 [Compound 1]
Inquiry: Which order do these items fall in when sorted by pIC50 from largest to smallest? Use the labels to give the requested order.
Reply text: I, III, II
(I: 9.96, III: 8.87, II: 8.41)

src = patent US8247404B2
